Source listed as paper PMC6445164.

Target: UniProtKB P00915
Sequence (P00915 whole entry): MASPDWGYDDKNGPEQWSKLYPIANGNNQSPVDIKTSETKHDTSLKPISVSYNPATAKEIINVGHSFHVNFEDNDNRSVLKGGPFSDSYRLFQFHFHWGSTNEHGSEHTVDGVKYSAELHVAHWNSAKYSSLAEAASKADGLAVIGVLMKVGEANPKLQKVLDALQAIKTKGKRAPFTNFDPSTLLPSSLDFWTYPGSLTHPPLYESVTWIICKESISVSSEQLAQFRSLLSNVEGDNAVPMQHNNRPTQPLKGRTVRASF
Assay: stopped-flow CA catalysed CO2 hydration assay, hCA I
Details: read-out: hCA Ki (μM) hCA I; recombinant enzyme, stopped-flow CO2 hydration, 15 min preincubation, pH 8.3
measurementName: Ki (µM)

| molecule | targetOrTestSystem | censoringSign | quantitativeReadout |
| --- | --- | --- | --- |
| Cc1cc(-n2cc(S(N)(=O)=O)cn2)ccc1S(N)(=O)=O [Compound 9g] | UniProtKB P00915 | = | 0.1 |
| NS(=O)(=O)c1cnn(-c2cccc(Cl)c2)c1 [Compound 8h] | UniProtKB P00915 | = | 0.54 |
| Cc1ccc(S(N)(=O)=O)cc1-n1cc(S(N)(=O)=O)cn1 [Compound 9i] | UniProtKB P00915 | = | 0.55 |
| COc1ccc(-n2cccn2)cc1S(N)(=O)=O [Compound 7h] | UniProtKB P00915 | > | 10 |
| Cc1ccc(S(N)(=O)=O)cc1-n1cccn1 [Compound 7f] | UniProtKB P00915 | = | 1.23 |
